src = PubChem BioAssay AID1963984

Listed below: viability, T/C values for each entry.
tested on: 233499-124-R-J3-PDC spheroids with HUVEC/MSC, viability; experiment: Anticancer human tumor 233499-124-R-J3-PDC patient-derived colon adenocarcinoma cell line growth inhibition [PI3K]; conditions: second compound 1 µM; first compound 3 µM; stronger effect = lower value

- compound: "Cn1cnc2c(F)c(Nc3ccc(Br)cc3Cl)c(C(=O)NOCCO)cc21 + Cc1nc(NC(=O)N2CCCC2C(N)=O)sc1-c1ccnc(C(C)(C)C(F)(F)F)c1"
  viability, T/C (%): 19.6
- compound: "Cn1cnc2c(F)c(Nc3ccc(Br)cc3Cl)c(C(=O)NOCCO)cc21 + CC(Nc1ccc2c(c1)OCCn1cc(N3C(=O)OCC3C(F)F)nc1-2)C(N)=O"
  viability, T/C (%): 12.7
- compound: "Cn1cnc2c(F)c(Nc3ccc(Br)cc3Cl)c(C(=O)NOCCO)cc21 + CC(Nc1ncnc2nc[nH]c12)c1cc2cccc(Cl)c2c(=O)n1-c1ccccc1"
  viability, T/C (%): 22.4
- compound: "Cn1cnc2c(F)c(Nc3ccc(Br)cc3Cl)c(C(=O)NOCCO)cc21 + COc1c(OCCCN2CCOCC2)ccc2c3n(c(=NC(=O)c4cnc(N)nc4)nc12)CCN3"
  viability, T/C (%): 1.01

* * *

system: 233499-124-R-J3-PDC spheroids with HUVEC/MSC, viability; test: Anticancer human tumor 233499-124-R-J3-PDC cell line growth inhibition [PI3K]; conditions: second compound 10 µM; first compound 1 µM; stronger effect = lower value;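 further: spheroids exposed to agents for seven days before readout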;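 on viability, T/C: percent viability relative to DMSO vehicle control taken as 100%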
reported.metric: viability, T/C (%)

- molecule: "CCCS(=O)(=O)Nc1ccc(F)c(C(=O)c2c[nH]c3ncc(-c4ccc(Cl)cc4)cc23)c1F + Cc1nc(NC(=O)N2CCCC2C(N)=O)sc1-c1ccnc(C(C)(C)C(F)(F)F)c1"
  target.entity: "233499-124-R-J3-PDC spheroids with HUVEC/MSC, viability"
  unit.annotation: "%"
  value.observed: 29.8
- molecule: "CCN1CCN(Cc2ccc(Nc3ncc(F)c(-c4cc(F)c5nc(C)n(C(C)C)c5c4)n3)nc2)CC1 + Cc1nc(NC(=O)N2CCCC2C(N)=O)sc1-c1ccnc(C(C)(C)C(F)(F)F)c1"
  target.entity: "233499-124-R-J3-PDC spheroids with HUVEC/MSC, viability"
  unit.annotation: "%"
  value.observed: 20.7
- molecule: "C#Cc1c(F)ccc2cc(O)cc(-c3ncc4c(N5CC6CCC(C5)N6)nc(OCC56CCCN5CC(F)C6)nc4c3F)c12 (stereo not drawn) + Cc1nc(NC(=O)N2CCCC2C(N)=O)sc1-c1ccnc(C(C)(C)C(F)(F)F)c1"
  target.entity: "233499-124-R-J3-PDC spheroids with HUVEC/MSC, viability"
  unit.annotation: "%"
  value.observed: 26.1

* * *

test system: 233499-124-R-J3-PDC spheroids with HUVEC/MSC, viability; experiment: Anticancer human tumor 233499-124-R-J3-PDC cell line growth inhibition [PI3K]; conditions: second compound 3.16 µM; first compound 1 µM; stronger effect = lower value;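 further: spheroids exposed to agents for seven days before readout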;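 on viability, T/C: percent viability relative to DMSO vehicle control taken as 100%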

- compound: "CNC(=O)c1ccc(N2C(=S)N(c3ccc(C#N)c(C(F)(F)F)c3)C(=O)C2(C)C)cc1F + CC(Nc1ncnc2nc[nH]c12)c1cc2cccc(Cl)c2c(=O)n1-c1ccccc1"
  unit.annotation: "%"
  viability, T/C: 87.6
- compound: "CC1(C)CCC(CN2CCN(c3ccc(C(=O)NS(=O)(=O)c4ccc(NCC5CCOCC5)c([N+](=O)[O-])c4)c(Oc4cnc5[nH]ccc5c4)c3)CC2)=C(c2ccc(Cl)cc2)C1 + Cc1nc(NC(=O)N2CCCC2C(N)=O)sc1-c1ccnc(C(C)(C)C(F)(F)F)c1"
  unit.annotation: "%"
  viability, T/C: 62.4
- compound: "Cn1nccc1Nc1nccc(-c2ccn(C(CO)c3ccc(Cl)c(F)c3)c(=O)c2)n1 (stereo not drawn) + Cc1nc(NC(=O)N2CCCC2C(N)=O)sc1-c1ccnc(C(C)(C)C(F)(F)F)c1"
  unit.annotation: "%"
  viability, T/C: 53.8

* * *

Listed below: IC50 values for each entry.
test system: 233499-124-R-J3-PDC spheroids with HUVEC/MSC, viability; test: Anticancer human tumor 233499-124-R-J3-PDC cell line growth inhibition [PI3K]; details: curve of first compound; second compound 0.0316 µM;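 further: spheroids exposed to agents for seven days before readout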

- compound: "CC1(C)CCC(CN2CCN(c3ccc(C(=O)NS(=O)(=O)c4ccc(NCC5CCOCC5)c([N+](=O)[O-])c4)c(Oc4cnc5[nH]ccc5c4)c3)CC2)=C(c2ccc(Cl)cc2)C1 + CC(Nc1ccc2c(c1)OCCn1cc(N3C(=O)OCC3C(F)F)nc1-2)C(N)=O"
  target.entity: "233499-124-R-J3-PDC spheroids with HUVEC/MSC, viability"
  value.relation.sign: "="
  IC50 (µM): 4.86
- compound: "Cn1ncc(Cl)c1-c1cc(C(=O)NC(CN)Cc2cccc(F)c2)sc1Cl (stereo not given) + CC(Nc1ncnc2nc[nH]c12)c1cc2cccc(Cl)c2c(=O)n1-c1ccccc1"
  target.entity: "233499-124-R-J3-PDC spheroids with HUVEC/MSC, viability"
  value.relation.sign: "="
  IC50 (µM): 3.2
- compound: "CC1(C)CCC(Nc2ncc(C(F)(F)F)c(-c3c[nH]c4c(P(C)(C)=O)c(C#N)ccc34)n2)CN1 (stereo not given) + CC(Nc1ccc2c(c1)OCCn1cc(N3C(=O)OCC3C(F)F)nc1-2)C(N)=O"
  target.entity: "233499-124-R-J3-PDC spheroids with HUVEC/MSC, viability"
  value.relation.sign: "="
  IC50 (µM): 0.094
- compound: "CC1(C)CCC(Nc2ncc(C(F)(F)F)c(-c3c[nH]c4c(P(C)(C)=O)c(C#N)ccc34)n2)CN1 (stereo not given) + Cc1nc(NC(=O)N2CCCC2C(N)=O)sc1-c1ccnc(C(C)(C)C(F)(F)F)c1"
  target.entity: "233499-124-R-J3-PDC spheroids with HUVEC/MSC, viability"
  value.relation.sign: "="
  IC50 (µM): 0.0664
- compound: "C[C@@H](NC(=O)c1ncnc(N)c1Cl)c1ncc(C(=O)Nc2cc(C(F)(F)F)c(Cl)cn2)s1 + CC(Nc1ccc2c(c1)OCCn1cc(N3C(=O)OCC3C(F)F)nc1-2)C(N)=O"
  target.entity: "233499-124-R-J3-PDC spheroids with HUVEC/MSC, viability"
  value.relation.sign: ">"
  IC50 (µM): 10

* * *

test system: 233499-124-R-J3-PDC spheroids with HUVEC/MSC, viability; test: Anticancer human tumor 233499-124-R-J3-PDC cell line growth inhibition [PI3K]; details: second compound 0.316 µM; first compound 0.949 µM; active means viability on the fitted dose curve at most 10% of control; inactive means the rest;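 further: spheroids exposed to agents for seven days before readout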
Classes used: active, inactive

- molecule: "Cn1cnc2c(F)c(Nc3ccc(Br)cc3Cl)c(C(=O)NOCCO)cc21 + CC(Nc1ccc2c(c1)OCCn1cc(N3C(=O)OCC3C(F)F)nc1-2)C(N)=O"
  target.entity: "233499-124-R-J3-PDC spheroids with HUVEC/MSC, viability"
  category.label: "inactive"
- molecule: "Cn1cnc2c(F)c(Nc3ccc(Br)cc3Cl)c(C(=O)NOCCO)cc21 + COc1c(OCCCN2CCOCC2)ccc2c3n(c(=NC(=O)c4cnc(N)nc4)nc12)CCN3"
  target.entity: "233499-124-R-J3-PDC spheroids with HUVEC/MSC, viability"
  category.label: "active"
- molecule: "Cn1cnc2c(F)c(Nc3ccc(Br)cc3Cl)c(C(=O)NOCCO)cc21 + Cc1nc(NC(=O)N2CCCC2C(N)=O)sc1-c1ccnc(C(C)(C)C(F)(F)F)c1"
  target.entity: "233499-124-R-J3-PDC spheroids with HUVEC/MSC, viability"
  category.label: "inactive"
- molecule: "Cn1cnc2c(F)c(Nc3ccc(Br)cc3Cl)c(C(=O)NOCCO)cc21 + CC(Nc1ncnc2nc[nH]c12)c1cc2cccc(Cl)c2c(=O)n1-c1ccccc1"
  target.entity: "233499-124-R-J3-PDC spheroids with HUVEC/MSC, viability"
  category.label: "inactive"

* * *

test system: 233499-124-R-J3-PDC spheroids with HUVEC/MSC, viability; assay: Anticancer human tumor 233499-124-R-J3-PDC cell line growth inhibition [PI3K]; settings: second compound 1 µM; first compound 1 µM; active = viability on the fitted dose curve at most 10% of control; inactive = the rest;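 further: spheroids exposed to agents for seven days before readout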
Classes used: active, inactive

- molecule: "C=CC(=O)N1CCN(c2nc(=O)n(-c3c(C)ccnc3C(C)C)c3nc(-c4c(O)cccc4F)c(F)cc23)C(C)C1 (stereo not given) + COc1c(OCCCN2CCOCC2)ccc2c3n(c(=NC(=O)c4cnc(N)nc4)nc12)CCN3"
  category.label: "inactive"
- molecule: "CC(Cn1ccc(-c2ccc(C#N)c(Cl)c2)n1)NC(=O)c1cc(C(C)O)[nH]n1 (stereo not given) + COc1c(OCCCN2CCOCC2)ccc2c3n(c(=NC(=O)c4cnc(N)nc4)nc12)CCN3"
  category.label: "active"
- molecule: "CC1(C)CCC(Nc2ncc(C(F)(F)F)c(-c3c[nH]c4c(P(C)(C)=O)c(C#N)ccc34)n2)CN1 (stereo not given) + CC(Nc1ccc2c(c1)OCCn1cc(N3C(=O)OCC3C(F)F)nc1-2)C(N)=O"
  category.label: "inactive"
- molecule: "Cn1ncc(Cl)c1-c1cc(C(=O)NC(CN)Cc2cccc(F)c2)sc1Cl (stereo not given) + COc1c(OCCCN2CCOCC2)ccc2c3n(c(=NC(=O)c4cnc(N)nc4)nc12)CCN3"
  category.label: "active"
- molecule: "CC1(C)CCC(Nc2ncc(C(F)(F)F)c(-c3c[nH]c4c(P(C)(C)=O)c(C#N)ccc34)n2)CN1 (stereo not given) + COc1c(OCCCN2CCOCC2)ccc2c3n(c(=NC(=O)c4cnc(N)nc4)nc12)CCN3"
  category.label: "active"
